// provenance: the supplement of paper PMC10126150

system: ATP; experiment: switch fluorescence ratio, 500 uM ATP over buffer (Cy3 cluster intensity, sum of 5 cycles each) (fold (ratio)); higher = stronger signal-on switching upon ATP binding; sequences stand for … in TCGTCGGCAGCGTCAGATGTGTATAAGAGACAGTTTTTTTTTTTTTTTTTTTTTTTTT…TC; conditions: aptamer strand: ATP DNA aptamer (quencher-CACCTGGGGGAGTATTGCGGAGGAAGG + anchor), 100 nM annealed; ATP concentration: 500 uM;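 also: ATP exposure 15 min at 22 °C before imaging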

{"SEQ_STRING": "TACGGGGGGT", "STUDY_TARGET": "ATP", "switch fluorescence ratio": 1.02}
{"SEQ_STRING": "TAAAATAGGG", "STUDY_TARGET": "ATP", "switch fluorescence ratio": 1.01}
{"SEQ_STRING": "GGGTGGTATT", "STUDY_TARGET": "ATP", "switch fluorescence ratio": 1.03}
{"SEQ_STRING": "CGGAGGGTAC", "STUDY_TARGET": "ATP", "switch fluorescence ratio": 1.61}
{"SEQ_STRING": "AGTAGCAAG", "STUDY_TARGET": "ATP", "switch fluorescence ratio": 1.08}
{"SEQ_STRING": "CCGGGTGCTA", "STUDY_TARGET": "ATP", "switch fluorescence ratio": 2.36}
{"SEQ_STRING": "CGTCTGGCTG", "STUDY_TARGET": "ATP", "switch fluorescence ratio": 1}
{"SEQ_STRING": "GACGTTCATA", "STUDY_TARGET": "ATP", "switch fluorescence ratio": 1.08}
{"SEQ_STRING": "GTAGTGGGGT", "STUDY_TARGET": "ATP", "switch fluorescence ratio": 0.987}
{"SEQ_STRING": "TTTAGTCGTA", "STUDY_TARGET": "ATP", "switch fluorescence ratio": 1.01}
{"SEQ_STRING": "CTAGGGTGGA", "STUDY_TARGET": "ATP", "switch fluorescence ratio": 1.05}
{"SEQ_STRING": "TTATAATTTC", "STUDY_TARGET": "ATP", "switch fluorescence ratio": 1.01}
{"SEQ_STRING": "GTGGTGTAAT", "STUDY_TARGET": "ATP", "switch fluorescence ratio": 0.992}
{"SEQ_STRING": "GTCCAAAAAA", "STUDY_TARGET": "ATP", "switch fluorescence ratio": 1.08}
{"SEQ_STRING": "ATGTCCGAAT", "STUDY_TARGET": "ATP", "switch fluorescence ratio": 1.02}
{"SEQ_STRING": "AGCCACTGGA", "STUDY_TARGET": "ATP", "switch fluorescence ratio": 1.06}
{"SEQ_STRING": "GAGAGTCTAG", "STUDY_TARGET": "ATP", "switch fluorescence ratio": 0.989}
{"SEQ_STRING": "ATATTGGCGC", "STUDY_TARGET": "ATP", "switch fluorescence ratio": 1.01}
{"SEQ_STRING": "GGTTTGGACG", "STUDY_TARGET": "ATP", "switch fluorescence ratio": 0.981}
{"SEQ_STRING": "GGTCATATGC", "STUDY_TARGET": "ATP", "switch fluorescence ratio": 1.04}
{"SEQ_STRING": "TCATCGGGTC", "STUDY_TARGET": "ATP", "switch fluorescence ratio": 1.05}
{"SEQ_STRING": "GGACATGGAC", "STUDY_TARGET": "ATP", "switch fluorescence ratio": 0.978}
{"SEQ_STRING": "TATTAGAACT", "STUDY_TARGET": "ATP", "switch fluorescence ratio": 1.02}
{"SEQ_STRING": "CACGGGGGCG", "STUDY_TARGET": "ATP", "switch fluorescence ratio": 1}
{"SEQ_STRING": "CAGTAGATGG", "STUDY_TARGET": "ATP", "switch fluorescence ratio": 0.985}
{"SEQ_STRING": "GACACGAGGT", "STUDY_TARGET": "ATP", "switch fluorescence ratio": 1.01}
{"SEQ_STRING": "ACTGTTATGT", "STUDY_TARGET": "ATP", "switch fluorescence ratio": 1.07}
{"SEQ_STRING": "CCTACGGTGG", "STUDY_TARGET": "ATP", "switch fluorescence ratio": 1.04}
{"SEQ_STRING": "CAGTTTTTGG", "STUDY_TARGET": "ATP", "switch fluorescence ratio": 0.992}
{"SEQ_STRING": "TAGAGCAGCT", "STUDY_TARGET": "ATP", "switch fluorescence ratio": 1.03}
{"SEQ_STRING": "TTCGAATTGT", "STUDY_TARGET": "ATP", "switch fluorescence ratio": 0.976}
{"SEQ_STRING": "CGTTTGAGGA", "STUDY_TARGET": "ATP", "switch fluorescence ratio": 1.01}
{"SEQ_STRING": "TTGTAATTCT", "STUDY_TARGET": "ATP", "switch fluorescence ratio": 1.17}
{"SEQ_STRING": "TCGGGGGGTA", "STUDY_TARGET": "ATP", "switch fluorescence ratio": 0.985}
{"SEQ_STRING": "CACTTATTCT", "STUDY_TARGET": "ATP", "switch fluorescence ratio": 0.973}
{"SEQ_STRING": "ACGGACGCCA", "STUDY_TARGET": "ATP", "switch fluorescence ratio": 1.21}
{"SEQ_STRING": "GCATAGAAAA", "STUDY_TARGET": "ATP", "switch fluorescence ratio": 0.982}
{"SEQ_STRING": "ACTCAGTATA", "STUDY_TARGET": "ATP", "switch fluorescence ratio": 1.1}
{"SEQ_STRING": "GGCGACGGGG", "STUDY_TARGET": "ATP", "switch fluorescence ratio": 1}
{"SEQ_STRING": "GGTCTACATT", "STUDY_TARGET": "ATP", "switch fluorescence ratio": 1.01}
